Test system: SK-MEL-5 melanoma
Test: NCI tumour cell line growth inhibition, 48 h
// reported TGI for each item listed

molecule: O=C1CCC2(c3ccc(F)cc3)Nc3ccccc3N12 (configuration not stated)
TGI: > 100 µM
//
molecule: COc1ccccc1-c1cc2c3c(nc4ccccc42)C(=O)c2cccnc2-c3n1
TGI: 25.4 µM
//
molecule: COc1ccc(-c2cc(C(=O)Nc3cccc(C(F)(F)F)c3)[nH]c(=S)n2)cc1
TGI: > 100 µM
//
molecule: OCC(O)COc1ccc(Br)cc1 (configuration not stated)
TGI: > 100 µM
//
molecule: CN(C(=O)c1ccc(F)cc1C(F)(F)F)C1CCN(c2nnc(-c3ccnn3C)c3ccccc23)CC1
TGI: 30 µM
//
molecule: COc1c(C2(c3ccc(F)cc3)SCCCS2)c(=O)c1=O
TGI: > 100 µM
//
molecule: CN(C)CC1CCC/C(=C\c2ccc(N(C)C)cc2)C1=O (configuration not stated)
TGI: 31.4 µM
//
molecule: O=C1Nc2ccc(F)c3c(OCCO)cc(-c4ccc[nH]4)c1c23
TGI: 6.29 µM
//
molecule: N#CC(c1ccc(O)cc1)N1CCN(C(C#N)c2ccc(O)cc2)CC1 (configuration not stated)
TGI: > 100 µM
//
molecule: CSc1nc2c(c(N(C)C)n1)C=Nn1c(nc3ccccc31)S2
TGI: > 100 µM
//
molecule: CCCCCCC1CCC2CCCC(C)N12 (configuration not stated)
TGI: > 100 µM
//
molecule: O=S(=O)(c1cccc(C(F)(F)F)c1)N1c2ccccc2-n2cccc2C1c1cccnc1 (configuration not stated)
TGI: > 43 µM
//
molecule: COc1ccc2c(c1)Oc1nc(N)c(C#N)c(N)c1C2Sc1ccc(SC)cc1 (configuration not stated)
TGI: 3.18 µM
//
molecule: Fc1cccc(F)c1C1SCC2=Nc3ccccc3CN21 (configuration not stated)
TGI: > 100 µM
//
molecule: Cc1c2c(n3c(nc4ccccc43)c1C#N)N(c1ccc(Cl)cc1)CC2
TGI: > 100 µM
//
molecule: COc1c2nc(CCl)n(C)c(=O)c2c(OC)c2c(=O)n(C)c(CCl)nc12
TGI: 4.96 µM
//
molecule: CCc1nc2c(O)ccc(O)c2nc1C
TGI: 31.2 µM
//
molecule: COc1nc(OC)c2c(=O)oc(-c3ccccc3)cc2n1
TGI: > 100 µM
//
molecule: O=C(Cn1ccnc1[N+](=O)[O-])N(CCO)CCO
TGI: > 1250 µM
//
molecule: CCC(=O)Sc1ccccc1C(=O)Nc1ccc(Cl)cc1
TGI: 17.4 µM
//
molecule: O=[N+]([O-])c1ccccc1S(=O)c1ccccc1 (configuration not stated)
TGI: > 100 µM
//
molecule: Cc1cc(-c2ccc(C(=O)C(Cl)(Cl)Cl)[nH]2)on1
TGI: > 100 µM
//
molecule: Cc1cc(Br)c(N2C3=C(CC4=C2CCCC4=O)C(=O)CCC3)c(Br)c1
TGI: > 100 µM
//
molecule: COc1ccc2c(c1)O/C(=C\c1cccc(OCC(=O)Nc3nc4ccccc4s3)c1)C2=O
TGI: > 100 µM
//
molecule: O=S(=O)(O)c1cc(Cl)c(O)c2ncc(Cl)cc12
TGI: > 100 µM
//
molecule: C[N+]1(C)CC=C(N2CCOCC2)CC1
TGI: > 10 µM
//
molecule: COc1cc2c(cc1OC)C1c3ccccc3C(C#N)(C2)N(C(=O)c2ccccc2)C1O (configuration not stated)
TGI: 90 µM
//
molecule: CS(=O)(=O)C1S(=O)(=O)OCCOS1(=O)=O
TGI: > 100 µM
//
molecule: C=C1C(=O)O[C@H]2[C@H]1CC/C(COC(=O)OCCCCCOC(=O)OC/C1=C/CC[C@@]3(C)O[C@H]3[C@H]3OC(=O)C(=C)[C@@H]3CC1)=C\CC[C@@]1(C)O[C@@H]21
TGI: 3.07 µM
//
molecule: Nc1c(Br)cc(-c2cc(Br)c(N)c(Br)c2)cc1Br
TGI: > 100 µM
//
molecule: O=C1C=C(SCCO)C(=O)c2ccccc21
TGI: 2.97 µM
//
molecule: Oc1ccc(-c2cc(-c3c(O)cc(O)cc3O)on2)cc1
TGI: > 100 µM
//
molecule: C=CC1CC12C(=O)C1OC2(C)C2C(=O)c3ccccc3C(=O)C12 (configuration not stated)
TGI: 54.7 µM
//
molecule: COc1ccc(-c2cc3cccc(OC)c3c(=O)o2)cc1OC
TGI: 40.8 µM
//
molecule: Nc1ccccc1C#C/C=C\C#Cc1ccc(F)cc1F
TGI: 25.3 µM
//
molecule: COc1ccc(NC(=S)NN=C(C)c2cccc(C(C)=NNC(=S)Nc3ccc(OC)cc3)n2)cc1
TGI: > 100 µM
//
molecule: C=C1CC2CC[C@@]34C[C@@H]5O[C@@H]6C(O[C@H]7CC[C@H](CC(=O)OC8[C@@H](C)C9OC%10C[C@]%11(C[C@@H]%12O[C@@]%13(C[C@@H](C)[C@@H]%12O%11)C[C@H](C)[C@@H]%11OC%12CC(C(O)CO)OC%12C[C@@H]%11O%13)OC%10CC9O[C@H]8C[C@H]8O[C@@H](CC[C@@H]1O2)C[C@@H](C)C8=C)O[C@@H]7[C@@H]6O3)C5O4 (some centres not stated)
TGI: 0.00591 µM
//
molecule: CN(C)c1c(Cl)c(=O)oc2c1ccc1nc(-c3ccccc3)sc12
TGI: > 100 µM
//
molecule: CCCCOC1CC2(c3ccc(OC)cc3)C(=O)c3ccccc3N2O1 (configuration not stated)
TGI: 88.4 µM
//
molecule: COc1ccc2c(O)c3[n+](cc2c1OC)CCc1cc2c(cc1-3)OCO2
TGI: > 100 µM
//
molecule: O=C1OCC(c2ccc(O)c(O)c2)=C1c1cc(O)c(O)c(O)c1
TGI: > 100 µM
//
molecule: CC(=O)N[C@@H](Cc1ccc(O)cn1)C(=O)NCc1cccc(F)c1
TGI: > 100 µM

Sourced from PubChem BioAssay (NCI)
